- TEST_DESCRIPTION: Tmax in ICR mouse at 10 mg/kg, po
- Type: ADME, organism-based
- CONDITION_INFO: in vivo
OBSERVABLE: Tmax
Mention the unit after the number when you answer.

Data request: So what does the record say about Tmax for CC(C)c1noc(N2CCC(Oc3ncnc4c(-c5ccc(S(C)(=O)=O)cc5F)csc34)CC2)n1 ?
Data returned: 30 min

====

- TEST_DESCRIPTION: Clearance in Sprague-Dawley rat at 1 mg/kg, iv
- Type: ADME, organism-based
- CONDITION_INFO: in vivo
OBSERVABLE: clearance (L/h/kg)
Give the quantity in L/h/kg, number only.

Data request: Look up clearance for this compound: CC(C)c1noc(N2CCC(Oc3ncnc4c(-c5ccc(S(C)(=O)=O)cc5F)csc34)CC2)n1
Data returned: 0.3
